Origin of measurements: ChEMBL document CHEMBL3596155

Can you tell me pIC50 for the items I'm about to list?
# target-or-system: Human immunodeficiency virus type 1 integrase (Human immunodeficiency virus 1, UniProt Q7ZJM1)
# Sequence (Q7ZJM1 whole entry): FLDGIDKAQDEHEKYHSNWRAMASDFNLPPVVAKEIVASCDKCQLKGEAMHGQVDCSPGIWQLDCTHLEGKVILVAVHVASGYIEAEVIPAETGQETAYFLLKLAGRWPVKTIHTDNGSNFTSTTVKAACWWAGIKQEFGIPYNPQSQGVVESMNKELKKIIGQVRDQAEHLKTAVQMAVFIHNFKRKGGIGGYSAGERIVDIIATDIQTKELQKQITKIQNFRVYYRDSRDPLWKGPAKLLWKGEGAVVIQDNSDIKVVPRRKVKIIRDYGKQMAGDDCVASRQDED
# experimental-protocol: Inhibition of HIV1 His6-tagged integrase assessed as inhibition of interaction with recombinant flag-tagged LEDGF/p75 incubated for 30 mins prior to substrate addition measured after 1 hr by AlphaScreen assay
In textbook form, pIC50 equals minus log to base ten of the concentration in mol/L.

stdin: Look up and state reported pIC50 for CC(C)C(C(=O)O)N1C(=O)/C(=C/c2ccc(O)cc2)SC1=S (configuration not stated)
stdout: 4.36

stdin: In one line, give reported pIC50 of the entry COc1ccc(/C=C2\SC(=S)N(C(C(=O)O)C(C)C)C2=O)cc1 (configuration not stated) .
stdout: 4.38

stdin: Look up and report measured pIC50 for this entry: CC(C)C(C(=O)O)N1C(=O)/C(=C/c2cccc3ccccc23)SC1=S (configuration not stated)
stdout: 4.73

stdin: Tell me pIC50 reported for CCOc1cc(/C=C2\SC(=S)N(C(C(=O)O)C(C)C)C2=O)ccc1O (configuration not stated)
stdout: 4.60

stdin: For the molecule COc1ccc2nc(/C=C3\SC(=S)N(C(C(=O)O)C(C)C)C3=O)ccc2c1 (configuration not stated) , give its reported pIC50.
stdout: 4.80

---

# experimental-protocol: Selectivity index, ratio of CC50 for human MT4 cells to EC50 for HIV 3B
# Assay type: toxicity, cell-based
# assay-context: read-out: Ratio CC50/EC50
property-name: selectivity ratio
Give a plain numeric answer without units written out.

stdin: Tell me selectivity ratio reported for COc1ccc(/C=C2\SC(=S)N(CCC(=O)O)C2=O)cc1
stdout: 61

---

# target-or-system: Human immunodeficiency virus type 1 integrase (Human immunodeficiency virus 1)
# experimental-protocol: Inhibition of HIV1 His6-tagged integrase assessed as inhibition of interaction with recombinant flag-tagged LEDGF/p75 at 100 uM incubated for 30 mins prior to substrate addition measured after 1 hr by AlphaScreen assay
Please respond with reported inhibition for every item in the list.

stdin: Report inhibition on Human immunodeficiency virus type 1 integrase (Human immunodeficiency virus 1) for this entry: CCOc1cc(/C=C2\SC(=S)N(C(C(=O)O)C(C)C)C2=O)ccc1OC (stereo unspecified)
stdout: 20%

stdin: GET inhibition | system: Human immunodeficiency virus type 1 integrase (Human immunodeficiency virus 1) | item: CCC(C(=O)O)N1C(=O)/C(=C/c2ccc(OC)cc2)SC1=S (stereo unspecified)
stdout: 54%

stdin: State measured inhibition of the compound COc1ccc(/C=C2\SC(=S)N(C(C)CC(=O)O)C2=O)cc1 (stereo unspecified) with Human immunodeficiency virus type 1 integrase (Human immunodeficiency virus 1).
stdout: 29%

stdin: State inhibition on Human immunodeficiency virus type 1 integrase (Human immunodeficiency virus 1). Entry: CC(C)C(C(=O)O)N1C(=O)/C(=C/c2cccc3ccccc23)SC1=S (stereo unspecified)
stdout: 89%

stdin: Please look at CCOc1ccc(/C=C2\SC(=S)N(C(C(=O)O)C(C)C)C2=O)cc1OC (stereo unspecified) and tell me its recorded inhibition on Human immunodeficiency virus type 1 integrase (Human immunodeficiency virus 1).
stdout: 28%

stdin: Retrieve inhibition on Human immunodeficiency virus type 1 integrase (Human immunodeficiency virus 1); query COc1cc(/C=C2\SC(=S)N(C(C(=O)O)C(C)C)C2=O)ccc1O (stereo unspecified)
stdout: 43%

stdin: Give the observed inhibition of COc1ccc(/C=C2\SC(=S)N(CC(=O)O)C2=O)cc1 for Human immunodeficiency virus type 1 integrase (Human immunodeficiency virus 1).
stdout: 36%

stdin: Report measured inhibition on Human immunodeficiency virus type 1 integrase (Human immunodeficiency virus 1); entry: COc1ccc(/C=C2\SC(=S)N(C(C)C(=O)O)C2=O)cc1 (stereo unspecified)
stdout: 47%

stdin: Provide measured inhibition on Human immunodeficiency virus type 1 integrase (Human immunodeficiency virus 1) for COc1ccc(/C=C2\SC(=S)N(CCC(=O)O)C2=O)cc1 please.
stdout: 66%

stdin: Provide Human immunodeficiency virus type 1 integrase (Human immunodeficiency virus 1) inhibition reading for CC(C)C(C(=O)O)N1C(=O)/C(=C/c2ccc(O)cc2)SC1=S (stereo unspecified) .
stdout: 77%
